Assay: Metabolic stability in human hepatocytes assessed as compound remaining at 1 uM after 2 hrs
Type: ADME, cell-based, Hepatocyte
Conditions: read-out: Stability
observed.property: remaining at 2 h, 1 µM

INSERT INTO results (structure_string, observed_property, measurement) VALUES
  ('COCC[C@H]1C[C@@H]1c1cncc(OC[C@@H]2CCCN2C)c1.O=C(O)C(F)(F)F', 'remaining at 2 h, 1 µM', '85.7%');

----------
Test system: Caco-2
Assay: Permeability from basolateral to apical side in human Caco2 cells at pH 7.4
Assay type: ADME, cell-based
Conditions: caco-2, pH 7.4
observed.property: permeability (×10⁻⁶ cm/s)

INSERT INTO results (structure_string, subject_of_test, measurement) VALUES
  ('COCC[C@H]1C[C@@H]1c1cncc(OC[C@@H]2CCCN2C)c1.O=C(O)C(F)(F)F', 'Caco-2', 18.4);

----------
Biological target: UniProt Q12809
Sequence (Q12809 whole entry): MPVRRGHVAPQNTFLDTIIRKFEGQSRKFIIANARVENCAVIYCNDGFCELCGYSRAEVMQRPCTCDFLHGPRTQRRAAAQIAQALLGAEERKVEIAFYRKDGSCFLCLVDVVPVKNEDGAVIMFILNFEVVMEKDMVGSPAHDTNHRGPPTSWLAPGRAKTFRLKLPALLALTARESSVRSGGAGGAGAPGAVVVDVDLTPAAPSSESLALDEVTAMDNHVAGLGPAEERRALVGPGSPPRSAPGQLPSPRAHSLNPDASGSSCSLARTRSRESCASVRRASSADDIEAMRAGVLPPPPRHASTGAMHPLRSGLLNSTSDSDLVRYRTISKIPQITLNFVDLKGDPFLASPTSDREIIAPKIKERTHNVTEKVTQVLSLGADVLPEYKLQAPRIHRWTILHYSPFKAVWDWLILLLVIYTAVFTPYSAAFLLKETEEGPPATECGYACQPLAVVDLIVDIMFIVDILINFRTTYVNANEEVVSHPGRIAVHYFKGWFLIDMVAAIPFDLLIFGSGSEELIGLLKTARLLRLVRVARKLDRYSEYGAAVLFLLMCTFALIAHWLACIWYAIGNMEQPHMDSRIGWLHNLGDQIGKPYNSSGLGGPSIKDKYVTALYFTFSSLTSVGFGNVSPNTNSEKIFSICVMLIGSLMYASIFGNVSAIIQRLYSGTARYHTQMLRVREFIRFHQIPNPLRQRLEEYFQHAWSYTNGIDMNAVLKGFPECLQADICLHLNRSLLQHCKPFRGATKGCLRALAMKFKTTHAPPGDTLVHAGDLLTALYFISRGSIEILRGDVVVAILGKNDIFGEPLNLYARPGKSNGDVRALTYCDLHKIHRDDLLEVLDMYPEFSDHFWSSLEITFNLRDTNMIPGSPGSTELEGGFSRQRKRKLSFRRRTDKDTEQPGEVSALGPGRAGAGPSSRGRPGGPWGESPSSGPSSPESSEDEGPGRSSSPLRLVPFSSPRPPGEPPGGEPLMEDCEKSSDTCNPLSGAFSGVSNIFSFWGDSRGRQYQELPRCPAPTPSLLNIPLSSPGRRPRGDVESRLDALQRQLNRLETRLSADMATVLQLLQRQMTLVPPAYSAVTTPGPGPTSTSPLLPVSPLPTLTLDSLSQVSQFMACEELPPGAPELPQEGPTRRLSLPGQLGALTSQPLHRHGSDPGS
Experiment: Inhibition of human ERG at 0.1 uM relative to control
observed.property: inhibition at 0.1 µM

INSERT INTO assay_data (structure_string, measurement) VALUES
  ('COCC[C@H]1C[C@@H]1c1cncc(OC[C@@H]2CCCN2C)c1.O=C(O)C(F)(F)F', '4%');
